Hey, just so you know, these numbers are from patent US20210388087A1.

Biological target: T1, Human CD3eg linker (human)
T1 construct: Single chain: epsilon and gamma subunits of human CD3 joined by a 29-mer linker, Flag-tag at the C-terminus; also called recombinant human CD3
T1 chain: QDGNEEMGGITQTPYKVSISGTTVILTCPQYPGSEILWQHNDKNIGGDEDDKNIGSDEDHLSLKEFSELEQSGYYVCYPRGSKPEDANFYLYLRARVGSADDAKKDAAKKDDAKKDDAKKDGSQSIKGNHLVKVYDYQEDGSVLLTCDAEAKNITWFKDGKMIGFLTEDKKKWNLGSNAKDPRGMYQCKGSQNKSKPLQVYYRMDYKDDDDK
Test: Biacore SPR, vs template H183/L072
Kindly supply the reported fold change of affinity values for the records listed here.
Answers are plain numbers, in fold.

Record excerpt, results attached:
{"binder": "H183/L072 VH Y59Q (antibody, name in Kabat numbering, V domains shown) VH: QVQLVESGGGLVQPGRSLRLSCAASGFTFSNAWMHWVRQAPGKGLEWVAQIKDKGNAYAAYQAPSVKGRFTISRDDSKNSIYLQMNSLKTEDTAVYYCHYVHYASASTVLPAFGVDAWGQGTTVTVSS VL: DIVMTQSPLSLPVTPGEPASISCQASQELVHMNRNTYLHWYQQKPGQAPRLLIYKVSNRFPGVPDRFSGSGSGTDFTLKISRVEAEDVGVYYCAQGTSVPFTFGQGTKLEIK", "valueUnit": "fold", "endpointResult": 1.1}
{"binder": "H183/L072 VH D101P (antibody, name in Kabat numbering, V domains shown) VH: QVQLVESGGGLVQPGRSLRLSCAASGFTFSNAWMHWVRQAPGKGLEWVAQIKDKGNAYAAYYAPSVKGRFTISRDDSKNSIYLQMNSLKTEDTAVYYCHYVHYASASTVLPAFGVPAWGQGTTVTVSS VL: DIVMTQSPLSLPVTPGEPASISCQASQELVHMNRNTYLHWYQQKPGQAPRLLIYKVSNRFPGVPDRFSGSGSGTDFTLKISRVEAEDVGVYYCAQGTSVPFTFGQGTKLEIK", "valueUnit": "fold", "endpointResult": 0}
{"binder": "H183/L072 VH F29Y (antibody, name in Kabat numbering, V domains shown) VH: QVQLVESGGGLVQPGRSLRLSCAASGFTYSNAWMHWVRQAPGKGLEWVAQIKDKGNAYAAYYAPSVKGRFTISRDDSKNSIYLQMNSLKTEDTAVYYCHYVHYASASTVLPAFGVDAWGQGTTVTVSS VL: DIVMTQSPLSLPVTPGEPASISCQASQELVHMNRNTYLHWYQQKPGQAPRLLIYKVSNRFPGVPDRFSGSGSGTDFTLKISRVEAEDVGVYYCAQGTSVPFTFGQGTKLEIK", "valueUnit": "fold", "endpointResult": 0.4}
{"binder": "H183/L072 VH M34S (antibody, name in Kabat numbering, V domains shown) VH: QVQLVESGGGLVQPGRSLRLSCAASGFTFSNAWSHWVRQAPGKGLEWVAQIKDKGNAYAAYYAPSVKGRFTISRDDSKNSIYLQMNSLKTEDTAVYYCHYVHYASASTVLPAFGVDAWGQGTTVTVSS VL: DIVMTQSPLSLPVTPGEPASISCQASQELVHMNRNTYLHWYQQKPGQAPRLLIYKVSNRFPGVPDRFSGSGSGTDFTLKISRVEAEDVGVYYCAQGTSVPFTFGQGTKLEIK", "valueUnit": "fold", "endpointResult": 0}

Next up:
Quick check: fold change of affinity of H183/L072 VH Y55R (antibody, name in Kabat numbering, V domains shown) VH: QVQLVESGGGLVQPGRSLRLSCAASGFTFSNAWMHWVRQAPGKGLEWVAQIKDKGNARAAYYAPSVKGRFTISRDDSKNSIYLQMNSLKTEDTAVYYCHYVHYASASTVLPAFGVDAWGQGTTVTVSS VL: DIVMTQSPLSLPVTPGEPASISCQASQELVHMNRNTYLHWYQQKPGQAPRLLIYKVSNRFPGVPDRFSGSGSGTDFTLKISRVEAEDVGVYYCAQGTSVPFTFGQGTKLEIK ?
0.4
